# EXPERIMENTAL TARGET: Mitogen-activated protein kinase 1 (Homo sapiens)
# CONDITION PARAMETERS: Compound concentration 20.0 uM
# Description: Thermal Shift Assay. Domain: start/stop: M1-S360

- TEST SMILES: "COc1cc(Nc2ncc(F)c(Nc3ccc4c(n3)N(COP(=O)(O)O)C(=O)C(C)(C)O4)n2)cc(OC)c1OC"
  ΔTm [°C]: -0.75
- TEST SMILES: "O=C(c1cc(Cc2n[nH]c(=O)c3ccccc23)ccc1F)N1CC(CNC2CC2)C1"
  ΔTm [°C]: 0.06
- TEST SMILES: "N[C@](CCCCB(O)O)(CCN1CCCCC1)C(=O)O"
  ΔTm [°C]: 0.26
- TEST SMILES: "N#C[C@@H]1CCCN1C(=O)CNC(=O)c1ccnc2ccc(OCCCN3CCN(C(=O)CN4CCN(CC(=O)O)CCN(CC(=O)O)CCN(CC(=O)O)CC4)CC3)cc12"
  ΔTm [°C]: 0.66
- TEST SMILES: "O=C(NCCCOc1ccc2[nH]c(=O)ccc2c1)N(C1CC1)[C@@H]1CCCC[C@H]1O"
  ΔTm [°C]: 0.1
- TEST SMILES: "COc1cc(-c2cn(C)c(=O)c3cnccc23)cc(OC)c1CN(C)C"
  ΔTm [°C]: 0.18
- TEST SMILES: "N=C(N)NC(=O)c1cnn(-c2cccc3ncccc23)c1C1CC1"
  ΔTm [°C]: 0.09
- TEST SMILES: "OC[C@H]1O[C@@H](c2ccc(Cl)c(Cc3ccc(OCCOC4CC4)cc3)c2)[C@H](O)[C@@H](O)[C@@H]1O"
  ΔTm [°C]: 0.15
- TEST SMILES: "CC1(C)Cn2nc(-c3ccc(F)cn3)c(-c3ccnc4[nH]ncc34)c2CO1"
  ΔTm [°C]: -0.48
- TEST SMILES: "Cc1cc(/N=N/c2ccc(S(=O)(=O)Nc3ccccn3)cc2)c(N)cc1O"
  ΔTm [°C]: 0.31
- TEST SMILES: "CC(C)Oc1ccc2c(=O)[nH]c3sccc3c2c1"
  ΔTm [°C]: 0.11
- TEST SMILES: "CC(C)(O)c1ccc(-c2nc3c(F)cc(F)cc3c(=O)[nH]2)cc1"
  ΔTm [°C]: -4.92
- TEST SMILES: "CN1CCc2c(n(Cc3ccc(C(=O)NO)cc3)c3ccccc23)C1"
  ΔTm [°C]: 0.14
- TEST SMILES: "O=C(Cc1ccccc1)c1cc(O)c(O)c([N+](=O)[O-])c1"
  ΔTm [°C]: 0.35
- TEST SMILES: "Cc1cc(C)c(CNC(=O)c2cc(-c3ccc(N4CCN(C)CC4)nc3)cc3c2c(C)cn3C(C)C)c(=O)[nH]1"
  ΔTm [°C]: 0.02
- TEST SMILES: "CC1(C)c2cccc(C(=O)NO)c2CN1c1cnc(C(F)(F)F)cn1"
  ΔTm [°C]: 0
- TEST SMILES: "CCN(CCN(C)C)C(=O)CNCc1cc(C(N)=O)ccn1"
  ΔTm [°C]: -0.01
- TEST SMILES: "Cc1cc(S(C)(=O)=O)c(S(C)(=O)=O)cc1C(=O)NC(=N)N"
  ΔTm [°C]: 0.12
- TEST SMILES: "COC(=O)[C@H]1[C@H]2C[C@@H]3c4[nH]c5cc(OC)ccc5c4CCN3C[C@H]2C[C@@H](OC(=O)c2cc(OC)c(OC)c(OC)c2)[C@@H]1OC"
  ΔTm [°C]: 0.12

---

# EXPERIMENTAL TARGET: Transcription intermediary factor 1-alpha (Homo sapiens) (UniProt O15164)
# Sequence (whole entry): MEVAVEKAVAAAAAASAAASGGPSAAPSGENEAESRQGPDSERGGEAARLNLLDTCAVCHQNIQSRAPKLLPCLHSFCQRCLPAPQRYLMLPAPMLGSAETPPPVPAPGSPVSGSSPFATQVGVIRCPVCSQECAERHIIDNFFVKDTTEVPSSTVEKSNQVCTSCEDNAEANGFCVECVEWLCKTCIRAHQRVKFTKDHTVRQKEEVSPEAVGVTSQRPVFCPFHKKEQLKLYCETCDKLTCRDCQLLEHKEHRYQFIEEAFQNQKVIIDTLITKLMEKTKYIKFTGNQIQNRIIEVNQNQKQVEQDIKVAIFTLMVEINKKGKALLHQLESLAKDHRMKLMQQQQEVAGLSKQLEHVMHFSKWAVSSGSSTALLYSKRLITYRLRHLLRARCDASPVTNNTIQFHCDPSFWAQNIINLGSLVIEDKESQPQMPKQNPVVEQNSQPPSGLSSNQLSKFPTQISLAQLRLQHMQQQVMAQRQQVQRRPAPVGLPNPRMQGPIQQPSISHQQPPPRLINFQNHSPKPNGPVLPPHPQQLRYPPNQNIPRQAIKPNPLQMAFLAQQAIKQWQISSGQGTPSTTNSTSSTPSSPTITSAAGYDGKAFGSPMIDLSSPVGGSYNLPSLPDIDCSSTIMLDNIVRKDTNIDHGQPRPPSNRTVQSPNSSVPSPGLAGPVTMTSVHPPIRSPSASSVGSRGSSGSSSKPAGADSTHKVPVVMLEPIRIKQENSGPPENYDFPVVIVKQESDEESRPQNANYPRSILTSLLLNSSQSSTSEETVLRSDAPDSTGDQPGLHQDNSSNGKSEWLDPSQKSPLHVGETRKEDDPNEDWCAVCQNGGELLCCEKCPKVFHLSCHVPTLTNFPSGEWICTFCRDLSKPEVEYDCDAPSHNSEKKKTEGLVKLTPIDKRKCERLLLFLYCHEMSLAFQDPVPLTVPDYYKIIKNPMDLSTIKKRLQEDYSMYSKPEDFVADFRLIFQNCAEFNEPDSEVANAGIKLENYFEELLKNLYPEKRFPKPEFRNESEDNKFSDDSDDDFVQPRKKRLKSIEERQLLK
# CONDITION PARAMETERS: Compound concentration 20.0 uM

- TEST SMILES: "OC[C@H]1O[C@@H](c2ccc(Cl)c(Cc3ccc(O[C@H]4CCOC4)cc3)c2)[C@H](O)[C@@H](O)[C@@H]1O"
  UNITS TEXT: "°C"
  ΔTm: -0.73
- TEST SMILES: "O=C(NCC1(c2nc(-c3ccccc3)cs2)CCOCC1)c1cccc(-c2noc(C(F)(F)F)n2)c1"
  UNITS TEXT: "°C"
  ΔTm: -1.09
- TEST SMILES: "O=c1[nH][nH]c(=O)c2cc(OCC3CCCCC3)ccc12"
  UNITS TEXT: "°C"
  ΔTm: 1.88
- TEST SMILES: "COc1ccc(/C=C/C(=O)NO)c(-c2ccc(-c3ccccc3)cc2)c1"
  UNITS TEXT: "°C"
  ΔTm: 3.31
- TEST SMILES: "Cc1nc(Nc2ncc(C(=O)Nc3c(C)cccc3Cl)s2)cc(N2CCN(CCO)CC2)n1"
  UNITS TEXT: "°C"
  ΔTm: -0.67

---

# EXPERIMENTAL TARGET: Cyclin-dependent kinase 2 (Homo sapiens) (UniProt P24941)
# CONDITION PARAMETERS: Compound concentration 20.0 uM
# Description: Thermal Shift Assay. Domain: start/stop: M1-L298
Residues, ends and D or L forms follow the SMILES beside them. *: point of attachment. Cbz = O=C(OCc1ccccc1)*; CH2F = FC*
Measured ΔTm of individual entries
ENDPOINT NAME: ΔTm

- COMPOUND: "O=C(C[C@@H](C(F)F)n1ccc(F)n1)N1CCC(O)(Cn2cnc3c(cnn3-c3ccc(F)cc3)c2=O)CC1"
  ENDPOINT RESULT: "0.2 °C"
- COMPOUND: "C=CCn1c(N[C@@H]2C[C@H](c3ccc(OCc4ccccc4)cc3)CN(C)C2)nc2cc[nH]c2c1=O"
  ENDPOINT RESULT: "-0.03 °C"
- COMPOUND: "COC(=O)CC(NC(=O)C(C)NC(=O)C(NC(=O)C(CC(=O)OC)NC(=O)C(NC(=O)OCc1ccccc1)C(C)C)C(C)C)C(=O)CF (stereo not drawn) (Cbz-VD(OMe)VAD(OMe)-CH2F; configuration not given here)"
  ENDPOINT RESULT: "0.27 °C"

---

# EXPERIMENTAL TARGET: Casein kinase I isoform delta (Homo sapiens)
# CONDITION PARAMETERS: Compound concentration 20.0 uM
# Description: Thermal Shift Assay. Domain: start/stop: M1-K294
Residues, ends and D or L forms follow the SMILES beside them. *: point of attachment. Boc = CC(C)(C)OC(=O)*
Measured ΔTm of individual entries

- COMPOUND: "COCc1nc(C(F)(F)F)[nH]c1-c1cc(C(=O)N2CC(c3ccc(C#N)cc3)C2)c(C)cc1C"
  ΔTm: "-0.27 °C"
- COMPOUND: "Oc1nc(-c2ccc(C(F)(F)F)cc2)nc2c1CSCC2"
  ΔTm: "-0.13 °C"
- COMPOUND: "CC(C)(C)OC(=O)N1CCC[C@H]1C(=O)N1CCC[C@H]1C=O (Boc-Pro-Pro-aldehyde)"
  ΔTm: "-0.53 °C"
- COMPOUND: "Nc1nc(C(F)(F)F)nc2c1nnn2C[C@H]1CN(Cc2nccs2)CCO1"
  ΔTm: "-0.15 °C"
- COMPOUND: "CCCCCCNC(=O)n1cc(Cl)c(=O)n(C(=O)OCC(C)C)c1=O"
  ΔTm: "-0.34 °C"
